- Test system: Pasteurella multocida
- assay.text: In vivo protective dose was evaluated against Pasteurella multocida (59A006) in mouse(sc)
- Format: functional
- cond: read-out: PD50
Hi! Could you tag entries with ED50 below 0.4 mg/kg as t, and those at or above as f? Much appreciated.

| molecule | label.class |
| --- | --- |
| CCn1cc(C(=O)O)c(=O)c2cc(F)c(N3CCN4CCCC3C4)cc21 (centres undefined) | f |
| CCn1cc(C(=O)O)c(=O)c2cc(F)c(N3CCNCC3)cc21 | f |
| CN1C[C@@H]2C[C@H]1CN2c1cc2c(cc1F)c(=O)c(C(=O)O)cn2-c1ccc(F)cc1 | t |
| CCn1cc(C(=O)O)c(=O)c2cc(F)c(N3C[C@@H]4C[C@H]3CN4C)cc21 | f |
| O=C(O)c1cn(C2CC2)c2cc(N3C[C@@H]4C[C@H]3CN4)c(F)cc2c1=O | t |
| CCn1cc(C(=O)O)c(=O)c2cc(F)c(N3CCN4CCC3CC4)cc21 | f |
| CN1[C@@H]2CC[C@H]1CN(c1cc3c(cc1F)c(=O)c(C(=O)O)cn3C1CC1)C2 | t |
| CN1C2CC[C@@H]1CCN(c1cc3c(cc1F)c(=O)c(C(=O)O)cn3C1CC1)C2 | f |
| O=C(O)c1cn(C2CC2)c2cc(N3CCN4CCCC3C4)c(F)cc2c1=O (centres undefined) | t |

----------
- System: Salmonella enterica
- assay.text: In vitro antibacterial activity against aerobically grown Salmonella choleraesuis (58B015)
- Type: functional
Hi! Could you tag entries with MIC below 0.2 µg/mL as True, and those at or above as False? Much appreciated.

| smiles.text | label.class |
| --- | --- |
| Cl.O.O=C(O)c1cn(C2CC2)c2cc(N3CCN4CCC3CC4)c(F)cc2c1=O | True |
| CCn1cc(C(=O)O)c(=O)c2cc(F)c(N3CCNCC3)cc21 | True |
| CCn1cc(C(=O)O)c(=O)c2cc(F)c(N3C[C@H]4CCC[C@@H](C3)N4C)cc21 | False |
| CN1C2CC[C@@H]1CCN(c1cc3c(cc1F)c(=O)c(C(=O)O)cn3C)C2 | False |
| O=C(O)c1cn(C2CC2)c2c(F)c(N3C[C@@H]4C[C@H]3CN4)c(F)cc2c1=O | True |
| CN1[C@@H]2CC[C@H]1CN(c1c(F)cc3c(=O)c(C(=O)O)cn(CCF)c3c1F)C2 | False |
| CCn1cc(C(=O)O)c(=O)c2cc(F)c(N3C[C@@H]4C[C@H]3CN4)cc21 | False |
| CN1C[C@@H]2C[C@H]1CN2c1c(F)cc2c(=O)c(C(=O)O)cn(-c3ccc(F)cc3F)c2c1Cl | False |
| CN1C[C@H]2C[C@@H]1CN2c1cc2c(cc1F)c(=O)c(C(=O)O)cn2C1CC1 | True |
| CN1C2CC[C@@H]1CCN(c1nc3c(cc1F)c(=O)c(C(=O)O)cn3C1CC1)C2 | False |
| CCn1cc(C(=O)O)c(=O)c2cc(F)c(N3CC[C@H]4CCC(C3)N4C)cc21 | False |
| CNn1cc(C(=O)O)c(=O)c2cc(F)c(N3CCN4CCC3CC4)cc21 | False |
| O=C(O)c1cn(C2CC2)c2cc(N3C[C@@H]4C[C@H]3CN4)c(F)cc2c1=O | True |
| CN1C2CC[C@@H]1CCN(c1cc3c(cc1F)c(=O)c(C(=O)O)cn3-c1ccc(F)cc1)C2 | False |
| C=Cn1cc(C(=O)O)c(=O)c2cc(F)c(N3CC[C@H]4CCC(C3)N4C)cc21 | False |
| CN1C[C@@H]2C[C@H]1CN2c1c(F)cc2c(=O)c(C(=O)O)cn(C3CC3)c2c1Cl | True |
| CN1[C@@H]2CCC[C@H]1CN(c1cc3c(cc1F)c(=O)c(C(=O)O)cn3C1CC1)C2.Cl | False |
| CN1[C@@H]2CC[C@H]1CN(c1c(F)cc3c(=O)c(C(=O)O)cn(C4CC4)c3c1F)C2 | False |
| CN1C2CC[C@@H]1CCN(c1c(F)cc3c(=O)c(C(=O)O)cn(C4CC4)c3c1F)C2 | True |
| O=C(O)c1cn(-c2ccc(F)cc2F)c2c(F)c(N3C[C@@H]4C[C@H]3CN4)c(F)cc2c1=O | True |
| CN1C[C@@H]2C[C@H]1CN2c1c(F)cc2c(=O)c(C(=O)O)cn(-c3ccc(F)cc3F)c2c1F | False |
| CN1[C@@H]2CC[C@H]1CN(c1cc3c(cc1F)c(=O)c(C(=O)O)cn3C)C2 | False |
| CN1[C@@H]2CC[C@H]1CN(c1cc3c(cc1F)c(=O)c(C(=O)O)cn3-c1ccc(F)cc1)C2.Cl.O | False |
| Cl.O.O=C(O)c1cn(CCF)c2cc(N3CCN4CCC3CC4)c(F)cc2c1=O | True |
| CN1C2CC[C@@H]1CCN(c1cc3c(cc1F)c(=O)c(C(=O)O)cn3C1CC1)C2 | False |

----------
- Tested on: Pasteurella multocida
- assay.text: In vitro antibacterial activity against aerobically grown Pasteurella multocida (59A006)
- Format: functional
# log10 MIC per record follows
readout.name: log10 MIC (log10 of the value in µg/mL)

| molecule | reported.value |
| --- | --- |
| O=C(O)c1cn(-c2ccc(F)cc2)c2c(F)c(N3C[C@@H]4C[C@H]3CN4)c(F)cc2c1=O | -1.00 |
| CNn1cc(C(=O)O)c(=O)c2cc(F)c(N3CCN4CCC3CC4)cc21 | -1.00 |
| CCn1cc(C(=O)O)c(=O)c2cc(F)c(N3CCN4CCCC3C4)cc21 (configuration not stated) | -1.70 |
| C=Cn1cc(C(=O)O)c(=O)c2cc(F)c(N3CC[C@H]4CCC(C3)N4C)cc21 | -0.70 |
| CCn1cc(C(=O)O)c(=O)c2cc(F)c(N3CCNCC3)cc21 | -1.30 |
| CN1[C@@H]2CC[C@H]1CN(c1c(F)cc3c(=O)c(C(=O)O)cn(C4CC4)c3c1F)C2 | -1.00 |
| CCn1cc(C(=O)O)c(=O)c2cc(F)c(N3C[C@H]4CC[C@@H](C3)N4C)cc21 | -0.70 |
| CCn1cc(C(=O)O)c(=O)c2cc(F)c(N3C[C@H]4CCC[C@@H](C3)N4C)cc21 | -0.11 |
| CCn1cc(C(=O)O)c(=O)c2cc(F)c(N3C[C@@H]4C[C@H]3CN4)cc21 | -0.70 |
| C=Cn1cc(C(=O)O)c(=O)c2cc(F)c(N3CCN4CCC3CC4)cc21 | -1.30 |
| CN1C[C@@H]2C[C@H]1CN2c1cc2c(cc1F)c(=O)c(C(=O)O)cn2C1CC1 | -2.00 |
| CCn1cc(C(=O)O)c(=O)c2cc(F)c(N3CCN4CCC3CC4)c(F)c21.Cl.O | -1.00 |

----------
- Tested on: Pasteurella multocida
- assay.text: In vitro antibacterial activity against aerobically grown Pasteurella multocida (59A006)
- Assay type: functional
readout.name: MIC

| smiles.text | reported.value |
| --- | --- |
| CN1C2CC[C@@H]1CCN(c1nc3c(cc1F)c(=O)c(C(=O)O)cn3C1CC1)C2 | 0.1 µg/mL |
| O=C(O)c1cn(C2CC2)c2c(F)c(N3C[C@@H]4C[C@H]3CN4)c(F)cc2c1=O | 0.005 µg/mL |
| O=C(O)c1cn(C2CC2)c2c(Cl)c(N3C[C@@H]4C[C@H]3CN4)c(F)cc2c1=O | 0.005 µg/mL |
| C=Cn1cc(C(=O)O)c(=O)c2cc(F)c(N3C[C@H]4CC[C@@H](C3)N4C)cc21 | 0.1 µg/mL |
| Cl.O.O=C(O)c1cn(CCF)c2cc(N3CCN4CCC3CC4)c(F)cc2c1=O | 0.05 µg/mL |

----------
- Tested on: Escherichia coli
- assay.text: In vivo protective dose was evaluated against Escherichia coli (51A266) in mouse(po)
- Assay type: functional
- cond: read-out: PD50

| smiles.text | target.or.system | unit.abbrev | ED50 |
| --- | --- | --- | --- |
| CCn1cc(C(=O)O)c(=O)c2cc(F)c(N3CCNCC3)cc21 | Escherichia coli | mg/kg | 8.84 |
| CN1C[C@@H]2C[C@H]1CN2c1cc2c(cc1F)c(=O)c(C(=O)O)cn2C1CC1 | Escherichia coli | mg/kg | 0.4 |
| CCn1cc(C(=O)O)c(=O)c2cc(F)c(N3CCN4CCC3CC4)cc21 | Escherichia coli | mg/kg | 10.2 |
| CN1[C@@H]2CC[C@H]1CN(c1cc3c(cc1F)c(=O)c(C(=O)O)cn3C1CC1)C2 | Escherichia coli | mg/kg | 3.8 |

Origin of the recorded values: ChEMBL document CHEMBL1126160
